Reference source: paper PMC7465190

# reported CC50 at 3 days; entries follow
assayName: Intrinsic cytotoxicity, EZ4U Cell Proliferation and Cytotoxicity Assay
Assay type: cell-based, human
appliedConditions: human, HeLa cells (cervical cancer), 3 days, EZ4U assay

O=C(O[C@@H]1[C@H](OC(=O)c2ccccc2)[C@@H](CO)O[C@H]1n1ccc(=O)[nH]c1=O)c1ccccc1
> 100 µM
O=C(OC[C@H]1O[C@@H](n2cc(Br)c(=O)[nH]c2=O)[C@H](OC(=O)c2ccccc2)[C@@H]1OC(=O)c1ccccc1)c1ccccc1
> 100 µM
O=C(OCC1OC(n2cc(F)c(=O)[nH]c2=O)C(OC(=O)c2ccccc2)C1OC(=O)c1ccccc1)c1ccccc1 (stereo not shown)
> 100 µM
Nc1ccn([C@@H]2O[C@H](COC(=O)c3ccccc3)[C@@H](OC(=O)c3ccccc3)[C@H]2OC(=O)c2ccccc2)c(=O)n1
> 100 µM

[Q] # query: CC50 at 3 days of entry Cc1cn([C@@H]2O[C@H](COC(=O)c3ccccc3)[C@@H](OC(=O)c3ccccc3)[C@H]2OC(=O)c2ccccc2)c(=O)[nH]c1=O
[A] > 100 µM

[Q] Value lookup for CC50 at 3 days; key = O=C(OC[C@H]1O[C@@H](n2cccnc2=O)[C@H](OC(=O)c2ccccc2)[C@@H]1OC(=O)c1ccccc1)c1ccccc1
[A] > 100 µM

[Q] So what does the record say about CC50 at 3 days for O=C(OCC1OC(n2cc(Cl)c(=O)[nH]c2=O)C(OC(=O)c2ccccc2)C1OC(=O)c1ccccc1)c1ccccc1 (stereo not shown) ?
[A] > 100 µM

###

Observed IC50, system Tdp1 (Homo sapiens).
Write down the numeric answer in µM and omit the unit.

COc1ccn([C@@H]2O[C@H](COC(=O)c3ccccc3)[C@@H](OC(=O)c3ccccc3)[C@H]2OC(=O)c2ccccc2)c(=O)n1
2.91

[Q] // fetch Tdp1 (Homo sapiens) IC50 for O=C(OC[C@H]1O[C@@H](n2ccc(=O)[nH]c2=O)[C@H](OC(=O)c2ccccc2)[C@@H]1OC(=O)c1ccccc1)c1ccccc1
[A] 6.3

###

targetSystem: Tdp1 (Homo sapiens, UniProt Q9NUW8)
Sequence (Q9NUW8 whole entry): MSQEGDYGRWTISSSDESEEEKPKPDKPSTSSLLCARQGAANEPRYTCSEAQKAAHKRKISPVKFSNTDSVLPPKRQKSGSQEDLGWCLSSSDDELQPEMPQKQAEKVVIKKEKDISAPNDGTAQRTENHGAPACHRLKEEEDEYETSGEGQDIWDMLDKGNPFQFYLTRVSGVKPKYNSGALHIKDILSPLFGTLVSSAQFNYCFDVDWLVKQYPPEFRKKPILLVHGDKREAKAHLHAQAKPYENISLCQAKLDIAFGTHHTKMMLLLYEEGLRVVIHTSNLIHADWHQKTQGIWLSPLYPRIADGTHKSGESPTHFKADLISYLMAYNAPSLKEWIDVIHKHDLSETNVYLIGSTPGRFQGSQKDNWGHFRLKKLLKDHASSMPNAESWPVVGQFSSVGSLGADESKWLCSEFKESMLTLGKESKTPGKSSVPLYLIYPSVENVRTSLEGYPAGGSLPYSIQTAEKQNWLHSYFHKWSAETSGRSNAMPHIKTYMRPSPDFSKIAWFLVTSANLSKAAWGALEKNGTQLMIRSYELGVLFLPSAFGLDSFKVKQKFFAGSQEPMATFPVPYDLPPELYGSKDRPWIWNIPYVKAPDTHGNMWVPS
Each record here notes measured pIC50.
Reminder that pIC50 is minus the log10 of a molar concentration.

O=C(OC[C@H]1O[C@@H](n2ccc(=O)nc2)[C@H](OC(=O)c2ccccc2)[C@@H]1OC(=O)c1ccccc1)c1ccccc1
4.74
Nc1ccn([C@@H]2O[C@H](COC(=O)c3ccccc3)[C@@H](OC(=O)c3ccccc3)[C@H]2OC(=O)c2ccccc2)c(=O)n1
5.37
O=C(OC[C@H]1O[C@@H](n2cccnc2=O)[C@H](OC(=O)c2ccccc2)[C@@H]1OC(=O)c1ccccc1)c1ccccc1
5.22

Next molecule, please.
[Q] I would be grateful if you could share the reported pIC50 for Cc1cc(=O)[nH]c(=O)n1[C@@H]1O[C@H](COC(=O)c2ccccc2)[C@@H](OC(=O)c2ccccc2)[C@H]1OC(=O)c1ccccc1 .
[A] 5.47

###

targetSystem: Tdp1 (Homo sapiens)
We begin with a simple list: items and their reported pIC50.
When answering, recall that pIC50 equals minus log10 of the concentration in mol/L, and write that number alone.

Some compounds with known pIC50 results, for comparison:
Cc1cn([C@@H]2O[C@H](COC(=O)c3ccccc3)[C@@H](OC(=O)c3ccccc3)[C@H]2OC(=O)c2ccccc2)c(=O)[nH]c1=O
5.57
CC(=O)O[C@@H]1O[C@H](COC(=O)c2ccccc2)[C@@H](OC(=O)c2ccccc2)[C@H]1OC(=O)c1ccccc1
5.38
O=C(OCC1OC(n2cc(Cl)c(=O)[nH]c2=O)C(OC(=O)c2ccccc2)C1OC(=O)c1ccccc1)c1ccccc1 (centres unmarked)
5.44

[Q] Notebook entry, Tdp1 (Homo sapiens) assay: pIC50 of O=C(OC[C@H]1O[C@@H](n2cc(Br)c(=O)[nH]c2=O)[C@H](OC(=O)c2ccccc2)[C@@H]1OC(=O)c1ccccc1)c1ccccc1 = ?
[A] 5.82

###

Catalogue of pIC50 readings, one per entry.
targetSystem: Tdp1 (Homo sapiens)
// pIC50 is dimensionless: -log10 of concentration (M)

O=C(O[C@@H]1[C@H](OC(=O)c2ccccc2)[C@@H](CO)O[C@H]1n1ccc(=O)[nH]c1=O)c1ccccc1
4.64
O=C(OC[C@H]1O[C@@H](n2cc(I)c(=O)[nH]c2=O)[C@H](OC(=O)c2ccccc2)[C@@H]1OC(=O)c1ccccc1)c1ccccc1
6.22

[Q] Give Tdp1 (Homo sapiens) pIC50 for O=C(OCC1OC(n2cc(F)c(=O)[nH]c2=O)C(OC(=O)c2ccccc2)C1OC(=O)c1ccccc1)c1ccccc1 (stereo not drawn)
[A] 5.07

###

System: HeLa cells
assayName: Intrinsic cytotoxicity, EZ4U Cell Proliferation and Cytotoxicity Assay
Format: cell-based, human
appliedConditions: Homo sapiens, EZ4U assay, read-out: concentration causing the death of half the HeLa cells
Method: First, we assessed the toxicity of the compounds to HeLa cells (cervical cancer cells). Analysis of the intrinsic cytotoxicity of the compounds was examined in the EZ4U Cell Proliferation and Cytotoxicity Assay (Biomedica, Austria). The tested compounds were added to the medium (the volume of added reagents was 1/100 of the total volume of the culture medium, and the amount of DMSO (dimethyl sulfoxide) was 1% of the final volume), and the cell culture was monitored for 3 days. […]
propertyName: IC50 (nM)
# unit: nM | format: bare number

[Q] Requested field: IC50. Item: CC[C@@]1(O)C(=O)OCc2c1cc1n(c2=O)Cc2cc3c(CN(C)C)c(O)ccc3nc2-1 [topotecan, reference compound]
[A] 2000

###

assayName: Intrinsic cytotoxicity, EZ4U Cell Proliferation and Cytotoxicity Assay
Format: cell-based, human
appliedConditions: human, HeLa cells (cervical cancer), 3 days, EZ4U assay
propertyName: CC50 at 3 days

COc1ccn([C@@H]2O[C@H](COC(=O)c3ccccc3)[C@@H](OC(=O)c3ccccc3)[C@H]2OC(=O)c2ccccc2)c(=O)n1
> 100 µM

[Q] Find the recorded CC50 at 3 days belonging to Cc1cc(=O)[nH]c(=O)n1[C@@H]1O[C@H](COC(=O)c2ccccc2)[C@@H](OC(=O)c2ccccc2)[C@H]1OC(=O)c1ccccc1 and report it.
[A] > 100 µM

[Q] Given O=C(OC[C@H]1O[C@@H](n2cc(I)c(=O)[nH]c2=O)[C@H](OC(=O)c2ccccc2)[C@@H]1OC(=O)c1ccccc1)c1ccccc1 , state its recorded CC50 at 3 days.
[A] > 100 µM

###

Reported IC50 values, Tdp1 (Homo sapiens, UniProt Q9NUW8).

Consider the worked cases shown below.
O=c1[nH]c(=O)n([C@@H]2O[C@H](CO)[C@@H](O)[C@H]2O)cc1Cl [Compound 1f, 5-Chlorouridine, reference compound]
> 50 µM
O=c1[nH]c(=O)n([C@@H]2O[C@H](CO)[C@@H](O)[C@H]2O)cc1Br [Compound 1c, 5-bromouridine, reference compound]
> 50 µM

Let us examine a further case.
[Q] Give Tdp1 (Homo sapiens, UniProt Q9NUW8) IC50 for O=c1[nH]c(=O)n([C@@H]2O[C@H](CO)[C@@H](O)[C@H]2O)cc1I [Compound 1d, 5-Iodouridine, reference compound]
[A] > 50 µM
